As shown below, each of these compounds has a reported pIC50 value.
# target_of_assay: Genome polyprotein (dengue virus type 2, UniProt P29990)
# Sequence (P29990 1346-1475 limits assumed): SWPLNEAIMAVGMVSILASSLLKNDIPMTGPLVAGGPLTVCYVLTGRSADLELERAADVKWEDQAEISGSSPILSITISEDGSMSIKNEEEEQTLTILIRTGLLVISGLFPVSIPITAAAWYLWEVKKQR
# Sequence (P29990 1476-2093 limits assumed): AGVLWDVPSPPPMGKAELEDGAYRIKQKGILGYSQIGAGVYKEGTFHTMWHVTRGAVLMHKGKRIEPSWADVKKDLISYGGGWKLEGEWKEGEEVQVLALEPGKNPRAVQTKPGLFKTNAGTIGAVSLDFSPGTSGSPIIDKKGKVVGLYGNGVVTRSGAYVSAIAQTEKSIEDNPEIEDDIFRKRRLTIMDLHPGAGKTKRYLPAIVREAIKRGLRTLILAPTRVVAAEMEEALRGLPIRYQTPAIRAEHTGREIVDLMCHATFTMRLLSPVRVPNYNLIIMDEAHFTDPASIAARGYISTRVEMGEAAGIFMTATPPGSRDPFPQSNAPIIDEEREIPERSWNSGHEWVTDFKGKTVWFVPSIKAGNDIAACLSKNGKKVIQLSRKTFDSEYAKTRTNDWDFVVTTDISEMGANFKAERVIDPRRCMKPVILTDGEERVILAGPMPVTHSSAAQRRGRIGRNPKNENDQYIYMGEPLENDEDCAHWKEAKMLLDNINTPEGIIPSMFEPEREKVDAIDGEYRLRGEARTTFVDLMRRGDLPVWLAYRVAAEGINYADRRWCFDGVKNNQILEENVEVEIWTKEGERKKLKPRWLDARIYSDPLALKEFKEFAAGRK
# Type: functional, Thailand/16681/1984
pIC50: −log10 of the molar value.

Solved cases below.
[[record]]
entry_smiles = "NCCCCc1ccc(NC(=O)c2cc(Cl)cc(NC(=O)OCc3ccccc3)c2)cc1"
recorded_result = 4.48

[[record]]
entry_smiles = "NC1(c2ccccc2NS(=O)(=O)c2ccc(Oc3ccccc3Cl)cc2)CC1"
recorded_result = "< 4.00"

[[record]]
entry_smiles = "O=C(Nc1cc(Cl)cc(C(=O)Nc2ccc(N3CCCNCC3)cc2)c1)OCc1ccccc1"
recorded_result = "< 4.00"

[[record]]
entry_smiles = "NCc1cccc(NC(=O)c2cc(NC(=O)OCc3ccccc3)ccc2C(F)(F)F)c1"
recorded_result = "< 4.00"

[[record]]
entry_smiles = "CC(C)c1nc2c(C(=O)Nc3cccc(CN)c3)cccc2[nH]1"
recorded_result = "< 4.00"

[[record]]
entry_smiles = "O=C(Nc1ccc2c(c1)CNC2)c1nc2ccccc2s1"
recorded_result = 4.06

[[record]]
entry_smiles = "NCc1cccc(NC(=O)[C@@H](NC(=O)OCc2ccccc2)c2ccc(OCc3nc4c(s3)COCC4)cc2)c1"
recorded_result = "< 4.00"

[[record]]
entry_smiles = "CNC(=O)[C@]1(Nc2ccc3c(c2)CNC3)C(=O)Nc2c(OC)cc(Br)cc21"
recorded_result = "< 4.00"


May I ask what pIC50 has been recorded for "C[C@H]1CNC[C@@H]1c1ccc(NC(=O)c2cc(Cl)cc(NC(=O)OCc3ccccc3)c2)cc1" ?
4.01

Which pIC50 value belongs to "CCNC(=O)Nc1cc(Cl)cc(C(=O)O)c1" ?
< 4.00

###

IC50: recorded values
# target_of_assay: UniProt:P29990
# Format: functional, Thailand/16681/1984

[[record]]
entry_smiles = "CCn1c(=O)c(N2CCC[C@H]2C(=O)NC2CC2)nc2ccccc21"
quantity_measured = "IC50"
recorded_result = "> 99.5 µM"

[[record]]
entry_smiles = "O=C(Nc1cc(Cl)cc(C(=O)Nc2ccc3c(c2)CNCC3)c1)OCc1ccccc1"
quantity_measured = "IC50"
recorded_result = "57.8 µM"

[[record]]
entry_smiles = "N#CC[C@H](N)c1cccc(NC(=O)c2cc(Cl)cc(NC(=O)OCc3ccccc3)c2)c1"
quantity_measured = "IC50"
recorded_result = "> 99.5 µM"

[[record]]
entry_smiles = "COC(=O)[C@H](NC(=O)OC(C)(C)C)c1ccc(-c2csc(C)c2)cc1"
quantity_measured = "IC50"
recorded_result = "> 99.5 µM"

[[record]]
entry_smiles = "O=C(Nc1cc(Cl)cc(C(=O)N2CCC[C@H](c3nnn[nH]3)C2)c1)OCc1ccccc1"
quantity_measured = "IC50"
recorded_result = "> 99.5 µM"

[[record]]
entry_smiles = "CCN1CCN(c2ccc(NC(=O)C3CCN(c4ccc(C=O)cc4)CC3)cc2)CC1"
quantity_measured = "IC50"
recorded_result = "73 µM"


Dear colleague, I am looking for the recorded IC50 of the following molecule: "C[C@H]1CNC[C@@H]1c1ccc(NC(=O)c2cc(Cl)cc(NC(=O)OCc3ccccc3)c2)cc1"
22.4 µM

Could you tell me which IC50 is on file for "O=C(Nc1ccc2c(c1)CNC2)c1cc(F)c2[nH]ccc2c1" ?
> 99.5 µM

State the recorded IC50 for this entry: "O=C(O)c1cc(Cl)ccc1S(=O)(=O)NC1CCN(c2ncnc3c2CCC3)CC1"
> 99.5 µM

# lookup: IC50 of "O=C(Nc1ccc2c(c1)CNC2)c1cc(F)cc2[nH]nnc12"
> 99.5 µM

###

# target_of_assay: Genome polyprotein (dengue virus type 2)
# Assay type: functional, Thailand/16681/1984
Readings of pIC50 for the listed compounds
A value of pIC50 is the negative decimal logarithm of a concentration given in moles per litre.

[[record]]
entry_smiles = "O=C(Nc1cc(Cl)cc(C(=O)Nc2ccc3c(c2)[C@H]2CC[C@H]3N2)c1)OCc1ccccc1"
quantity_measured = "pIC50"
recorded_result = 4.12


Next compound, pIC50 to be filled in.
Look up pIC50: "COc1ccc(-c2cccc([C@H](NC(=O)OCc3ccccc3)C(=O)Nc3cccc(CN)c3)c2)c(C#N)c1"
4.25

###

Consider the following compounds and their measured IC50 readings.
# target_of_assay: Genome polyprotein (dengue virus type 2, UniProt P29990)
# Type: functional, Thailand/16681/1984

Field: example entries. Status: answers known.
[[record]]
entry_smiles = "O=C(Nc1ccc2c(c1)CNC2)c1ccn[nH]1"
recorded_result = "> 99.5 µM"

[[record]]
entry_smiles = "O=S(=O)(CCOc1ccccc1)c1nccs1"
recorded_result = "> 99.5 µM"

[[record]]
entry_smiles = "O=C1Cc2c(cccc2C(=O)N[C@H]2C[C@H](c3ccon3)C2)N1"
recorded_result = "> 99.5 µM"

[[record]]
entry_smiles = "Cc1nc(-c2ccc(Cl)cc2)sc1C(=O)Nc1cccc(CN)c1"
recorded_result = "> 99.5 µM"

[[record]]
entry_smiles = "CCn1cc(-c2ccncc2F)nc(N2CC[C@@H](CO)C2)c1=O"
recorded_result = "> 99.5 µM"

[[record]]
entry_smiles = "COc1cc(-c2cc(Cl)cc(NC(=O)OCc3ccccc3)c2)c(OC)cc1CC(=O)O"
recorded_result = "32.8 µM"

[[record]]
entry_smiles = "N#C[C@H](Nc1cccc(C(=O)O)c1)c1cc(Cl)cc2[nH]ncc12"
recorded_result = "> 99.5 µM"

[[record]]
entry_smiles = "NCc1cccc(NC(=O)[C@H]2CCOC3(CCC3)C2)c1"
recorded_result = "> 99.5 µM"

[[record]]
entry_smiles = "CN(c1ncnc(-c2ccsc2C=O)n1)C1CCNCC1"
recorded_result = "> 99.5 µM"

[[record]]
entry_smiles = "CCn1ccnc(N2CC[C@H](c3cccc(C#N)c3)C2)c1=O"
recorded_result = "> 99.5 µM"


Field: next compound
Which value of IC50 has been reported for "O=C(Nc1cccc([C@@H]2C[C@H]2C(=O)O)c1)c1cc(Cl)cc2[nH]ncc12" in the records?
> 99.5 µM

###

Recorded pIC50 for the following compounds
# target_of_assay: Genome polyprotein (dengue virus type 2)
# Type: functional, Thailand/16681/1984
pIC50: −log10 of the molar value.

Please review the following examples before continuing.
[[record]]
entry_smiles = "CC(C)c1ncc(OC2CCC2)c(C(=O)Nc2cccc(CN)c2)n1"
target_of_assay = "Genome polyprotein (dengue virus type 2)"
recorded_result = "< 4.00"

[[record]]
entry_smiles = "O=C(Nc1ccc2c(c1)CNC2)c1cc(Cl)cc2nccnc12"
target_of_assay = "Genome polyprotein (dengue virus type 2)"
recorded_result = 4.13

[[record]]
entry_smiles = "CCn1cc(-c2ccc([C@@H](NC(=O)OCc3ccccc3)C(=O)Nc3cccc(CN)c3)cc2)cn1"
target_of_assay = "Genome polyprotein (dengue virus type 2)"
recorded_result = "< 4.00"

[[record]]
entry_smiles = "Cn1cc(C(=O)N2CCC([C@H](NC(=O)OCc3ccccc3)C(=O)Nc3cccc(CN)c3)CC2)cn1"
target_of_assay = "Genome polyprotein (dengue virus type 2)"
recorded_result = "< 4.00"

[[record]]
entry_smiles = "Brc1cnc(Sc2ncc[nH]2)nc1"
target_of_assay = "Genome polyprotein (dengue virus type 2)"
recorded_result = "< 4.00"

[[record]]
entry_smiles = "O=Cc1ccc(N2CCC(C(=O)NC[C@H](O)c3ccc(O)c(O)c3)CC2)cc1"
target_of_assay = "Genome polyprotein (dengue virus type 2)"
recorded_result = 4.48


Which pIC50 value is on record for "Cn1nc(C2CC2)cc1C(=O)Nc1cc(-c2cccnc2)ccn1" ?
< 4.00

Which pIC50 reading was recorded for the compound "N#Cc1ccccc1O[C@H]1CC[C@H](NS(=O)(=O)c2ccc(Cl)cc2C(=O)O)CC1" ?
< 4.00

Requested read-out: pIC50. Entry: "O=C1OCc2ccc(NC(=O)c3cccc4c3CNC4)cc21"
< 4.00

// pIC50 lookup, key: "Cc1c(C(=O)Nc2cccc([C@H]3CCNC3)c2)cc(C2CC2)n1C"
< 4.00

Which pIC50 is reported for this compound? "N[C@H]1CCc2ncc(NS(=O)(=O)c3ccc(Oc4ccccc4Cl)cc3)cc2C1"
< 4.00

Given the compound "Clc1ccc2c(c1)ncn2Cc1ccc(-c2nn[nH]n2)cc1" , what is its reported pIC50?
< 4.00

Could you share which pIC50 value was measured for "O=C(Nc1ccc2c(c1)CNC2)c1cc(Cl)cc2[nH]c(CN3CCCC3=O)cc12" ?
< 4.00

pIC50 for "NC[C@H]1C[C@H]1NC(=O)c1cc(Cl)cc(NC(=O)OCc2ccccc2)c1" ?
< 4.00

Which value of pIC50 has been reported for "NC1CN(c2ccc(NS(=O)(=O)c3ccc(Oc4ccccc4Cl)cc3)cn2)C1" in the records?
< 4.00

Query (compound): "Cc1cc(C(F)(F)F)cc(C(=O)Nc2ccc3c(c2)CNC3)n1" ; field requested: pIC50
4.31

Suppose we examine the compound "O=C(N[C@@H](C(=O)Nc1ccccn1)c1ccc(OCc2ccccc2)cc1)OCc1ccccc1" ; what pIC50 value has been reported?
< 4.00

# lookup: pIC50 of "Cc1oc(C(=O)Nc2cccc(CN)c2)cc1COc1ccccc1"
< 4.00

Query (compound): "NCc1cccc(NC(=O)c2nn(-c3ccccc3F)cc2Br)c1" ; field requested: pIC50
< 4.00
